ASSAY_SYSTEM: T1, EsCas13d, nuclease-dead (Eubacterium siraeum, UniProt B0MS50, R295A;H300A;R849A;H854A)
T1 sequence: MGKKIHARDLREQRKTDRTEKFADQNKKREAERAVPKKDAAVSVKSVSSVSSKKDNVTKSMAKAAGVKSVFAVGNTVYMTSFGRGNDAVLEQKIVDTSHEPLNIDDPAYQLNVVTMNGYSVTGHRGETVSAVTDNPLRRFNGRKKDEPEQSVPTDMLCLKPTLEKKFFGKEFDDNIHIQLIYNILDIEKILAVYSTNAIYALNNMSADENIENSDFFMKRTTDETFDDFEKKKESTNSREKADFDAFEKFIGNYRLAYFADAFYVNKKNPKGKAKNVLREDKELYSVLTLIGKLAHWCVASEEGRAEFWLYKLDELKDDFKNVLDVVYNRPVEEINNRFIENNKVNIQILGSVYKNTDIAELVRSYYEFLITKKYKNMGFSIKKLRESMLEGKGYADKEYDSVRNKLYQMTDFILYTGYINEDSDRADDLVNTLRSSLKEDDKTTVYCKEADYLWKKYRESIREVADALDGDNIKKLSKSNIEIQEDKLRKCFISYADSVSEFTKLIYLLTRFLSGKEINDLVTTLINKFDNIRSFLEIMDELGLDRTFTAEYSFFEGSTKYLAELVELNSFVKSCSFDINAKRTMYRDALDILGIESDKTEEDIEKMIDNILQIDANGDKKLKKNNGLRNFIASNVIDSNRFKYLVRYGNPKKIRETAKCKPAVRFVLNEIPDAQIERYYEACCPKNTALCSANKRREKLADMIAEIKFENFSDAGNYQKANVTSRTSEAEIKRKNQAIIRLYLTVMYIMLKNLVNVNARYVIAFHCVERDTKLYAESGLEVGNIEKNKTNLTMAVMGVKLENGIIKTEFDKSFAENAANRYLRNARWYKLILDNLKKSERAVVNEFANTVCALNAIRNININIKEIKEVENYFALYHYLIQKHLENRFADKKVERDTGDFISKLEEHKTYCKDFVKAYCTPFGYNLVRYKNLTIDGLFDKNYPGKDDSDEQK
MEASUREMENT_DESCRIPTION: crRNA (strand 1, pre-loaded); Mg2+; 40 mM Tris-HCl pH 7.5, 150 mM NaCl, 6 mM MgCl2, 1 mM DTT, 0.1% Tween-20, 0.2 mg/ml BSA; 25 C; 10 min per concentration, then washed
EXPERIMENTAL_CONDITIONS: tags: His6-TwinStrep-SUMO cleaved; N-terminal SNAP kept (SNAP-Surface 488); label: 3' end held by stalled T7 RNA polymerase
ASSAY_READOUT: pKd
One number for each entry, as −log10 of the molar value.

Reference set, count: 5
[ask] Could you tell me which pKd is on file for target 1 A1G,A16U (mixed) RNA 1: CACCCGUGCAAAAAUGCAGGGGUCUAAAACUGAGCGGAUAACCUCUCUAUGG RNA 2: GGGAAUGGAUCCACAUCUACGAAUUCGUACCAUAGUGAGGUUAUCCGCUCGCCGAGAUCGGAAGAGCACACGU ?
[reply] 7.35

[ask] And what about the binder target 2 MT 5'PFS CAC 3'PFS UCC (mixed) RNA 1: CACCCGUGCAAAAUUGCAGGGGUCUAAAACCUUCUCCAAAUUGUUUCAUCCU RNA 2: GGGAAUGGAUCCACAUCUACGAAUUCCACAGGAUGAAACAAUUUGGAGAAGUCCAGAUCGGAAGAGCACACGU ?
[reply] 8.31

[ask] Another binder to look at: target 1 insC 3' of 19,insC 3' of 8 (mixed) RNA 1: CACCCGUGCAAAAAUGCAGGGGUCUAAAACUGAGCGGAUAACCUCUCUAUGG RNA 2: GGGAAUGGAUCCACAUCUACGAAUUCGUACCAUCAGAGAGGUUAUCCCGCUCACCGAGAUCGGAAGAGCACACGU
[reply] 7.28

[ask] // next record target 1 MT 5'PFS GUG 3'PFS UCC (mixed) RNA 1: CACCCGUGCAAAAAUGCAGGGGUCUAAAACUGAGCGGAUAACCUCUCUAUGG RNA 2: GGGAAUGGAUCCACAUCUACGAAUUCGUGCCAUAGAGAGGUUAUCCGCUCAUCCAGAUCGGAAGAGCACACGU
[reply] 7.96

[ask] Also target 1 MT 5'PFS GCA 3'PFS UAA (mixed) RNA 1: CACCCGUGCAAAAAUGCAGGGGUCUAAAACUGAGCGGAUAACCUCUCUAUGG RNA 2: GGGAAUGGAUCCACAUCUACGAAUUCGCACCAUAGAGAGGUUAUCCGCUCAUAAAGAUCGGAAGAGCACACGU , if possible.
[reply] 7.72

For each of the items listed, what is its pKd?
1. target 2 MT 5'PFS AUU 3'PFS CAU (mixed) RNA 1: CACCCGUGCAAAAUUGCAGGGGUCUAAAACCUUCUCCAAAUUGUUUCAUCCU RNA 2: GGGAAUGGAUCCACAUCUACGAAUUCAUUAGGAUGAAACAAUUUGGAGAAGCAUAGAUCGGAAGAGCACACGU
2. target 1 complement block 2-6 (mixed) RNA 1: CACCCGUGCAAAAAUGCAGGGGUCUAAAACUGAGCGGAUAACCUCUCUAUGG RNA 2: GGGAAUGGAUCCACAUCUACGAAUUCGUACCAUAGAGAGGUUAUCGCGAGACCGAGAUCGGAAGAGCACACGU

[reply]
[8.24, 7.91]

List reported pKd for each of these binders:
1. target 3 insC 3' of 9,insA 3' of 6 (mixed) RNA 1: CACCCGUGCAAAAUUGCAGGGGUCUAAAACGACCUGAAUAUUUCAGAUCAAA RNA 2: GGGAAUGGAUCCACAUCUACGAAUUCGUUUUUGAUCUGAAAUACUUCAAGGUCUGCAGAUCGGAAGAGCACACGU
2. target 1 C2A,A18U (mixed) RNA 1: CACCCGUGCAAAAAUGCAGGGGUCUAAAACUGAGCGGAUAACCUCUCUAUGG RNA 2: GGGAAUGGAUCCACAUCUACGAAUUCGUACCAUUGAGAGGUUAUCCGCUAACCGAGAUCGGAAGAGCACACGU
3. target 1 del9,del19 (mixed) RNA 1: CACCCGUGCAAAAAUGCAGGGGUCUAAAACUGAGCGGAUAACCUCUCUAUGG RNA 2: GGGAAUGGAUCCACAUCUACGAAUUCGUACCAAGAGAGGUUUCCGCUCACCGAGAUCGGAAGAGCACACGU

[reply]
7.12
7.62
7.07

[ask] Please look up its pKd: target 1 MT 5'PFS GGA 3'PFS CCU (mixed) RNA 1: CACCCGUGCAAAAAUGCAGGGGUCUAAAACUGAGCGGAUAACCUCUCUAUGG RNA 2: GGGAAUGGAUCCACAUCUACGAAUUCGGACCAUAGAGAGGUUAUCCGCUCACCUAGAUCGGAAGAGCACACGU
[reply] 7.99
